Origin of measurements: patent US20250145635A1

Molecular target: recombinant human PKR enzyme (Homo sapiens (Human), UniProt P30613)
Sequence (P30613 whole entry): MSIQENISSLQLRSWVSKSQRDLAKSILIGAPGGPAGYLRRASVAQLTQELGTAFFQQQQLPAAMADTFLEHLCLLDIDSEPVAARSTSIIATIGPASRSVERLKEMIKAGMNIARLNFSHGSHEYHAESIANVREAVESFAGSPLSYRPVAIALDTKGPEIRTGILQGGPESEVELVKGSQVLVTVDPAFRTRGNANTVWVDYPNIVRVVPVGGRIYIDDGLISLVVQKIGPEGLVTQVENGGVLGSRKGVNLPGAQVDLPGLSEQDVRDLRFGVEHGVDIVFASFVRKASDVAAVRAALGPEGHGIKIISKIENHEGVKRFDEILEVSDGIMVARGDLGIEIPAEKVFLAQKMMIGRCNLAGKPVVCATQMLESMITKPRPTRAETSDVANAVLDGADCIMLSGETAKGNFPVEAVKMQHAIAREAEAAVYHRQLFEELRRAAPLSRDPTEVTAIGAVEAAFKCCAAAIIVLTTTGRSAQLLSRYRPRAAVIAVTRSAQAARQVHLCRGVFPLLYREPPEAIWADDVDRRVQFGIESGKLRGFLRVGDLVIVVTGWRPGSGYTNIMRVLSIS
Test: Pyruvate kinase (PKR) activity experiment
Type: biochemical
Conditions: activation of recombinant human PKR enzyme
Metric name: AC50

Okay, here is my list. What is AC50 for each of these?
1. CC(C)(O)C(C(=O)N1CC(=C2CN(S(=O)(=O)c3ccc(OC(F)F)cc3)C2)C1)c1ccccc1 (centres unmarked) [Compound 17]
2. O=C([C@H](CO)c1ccccc1)N1CC(=C2CN(S(=O)(=O)c3ccc(OC(F)(F)F)cc3)C2)C1 [Compound 9]
3. O=C1COc2ccc(S(=O)(=O)N3CC(=C4CN(C(=O)[C@H](CO)c5ccccc5)C4)C3)cc2N1 [Compound 40]
4. O=C(C(CO)c1ccc(F)cc1)N1CC(=C2CN(S(=O)(=O)c3ccc4c(c3)OC(F)(F)O4)C2)C1 (centres unmarked) [Compound 36]
5. O=C([C@H](CO)c1ccccc1)N1CC(=C2CN(S(=O)(=O)c3ccc4c(c3)OCCO4)C2)C1 [Compound 2]

Output:
1. 300 to 1000 nM
2. 101 to 300 nM
3. 101 to 300 nM
4. 300 to 1000 nM
5. < 100 nM

* * *

Biological target: USP9X (Homo sapiens (Human), UniProt Q93008)
Sequence (Q93008 whole entry): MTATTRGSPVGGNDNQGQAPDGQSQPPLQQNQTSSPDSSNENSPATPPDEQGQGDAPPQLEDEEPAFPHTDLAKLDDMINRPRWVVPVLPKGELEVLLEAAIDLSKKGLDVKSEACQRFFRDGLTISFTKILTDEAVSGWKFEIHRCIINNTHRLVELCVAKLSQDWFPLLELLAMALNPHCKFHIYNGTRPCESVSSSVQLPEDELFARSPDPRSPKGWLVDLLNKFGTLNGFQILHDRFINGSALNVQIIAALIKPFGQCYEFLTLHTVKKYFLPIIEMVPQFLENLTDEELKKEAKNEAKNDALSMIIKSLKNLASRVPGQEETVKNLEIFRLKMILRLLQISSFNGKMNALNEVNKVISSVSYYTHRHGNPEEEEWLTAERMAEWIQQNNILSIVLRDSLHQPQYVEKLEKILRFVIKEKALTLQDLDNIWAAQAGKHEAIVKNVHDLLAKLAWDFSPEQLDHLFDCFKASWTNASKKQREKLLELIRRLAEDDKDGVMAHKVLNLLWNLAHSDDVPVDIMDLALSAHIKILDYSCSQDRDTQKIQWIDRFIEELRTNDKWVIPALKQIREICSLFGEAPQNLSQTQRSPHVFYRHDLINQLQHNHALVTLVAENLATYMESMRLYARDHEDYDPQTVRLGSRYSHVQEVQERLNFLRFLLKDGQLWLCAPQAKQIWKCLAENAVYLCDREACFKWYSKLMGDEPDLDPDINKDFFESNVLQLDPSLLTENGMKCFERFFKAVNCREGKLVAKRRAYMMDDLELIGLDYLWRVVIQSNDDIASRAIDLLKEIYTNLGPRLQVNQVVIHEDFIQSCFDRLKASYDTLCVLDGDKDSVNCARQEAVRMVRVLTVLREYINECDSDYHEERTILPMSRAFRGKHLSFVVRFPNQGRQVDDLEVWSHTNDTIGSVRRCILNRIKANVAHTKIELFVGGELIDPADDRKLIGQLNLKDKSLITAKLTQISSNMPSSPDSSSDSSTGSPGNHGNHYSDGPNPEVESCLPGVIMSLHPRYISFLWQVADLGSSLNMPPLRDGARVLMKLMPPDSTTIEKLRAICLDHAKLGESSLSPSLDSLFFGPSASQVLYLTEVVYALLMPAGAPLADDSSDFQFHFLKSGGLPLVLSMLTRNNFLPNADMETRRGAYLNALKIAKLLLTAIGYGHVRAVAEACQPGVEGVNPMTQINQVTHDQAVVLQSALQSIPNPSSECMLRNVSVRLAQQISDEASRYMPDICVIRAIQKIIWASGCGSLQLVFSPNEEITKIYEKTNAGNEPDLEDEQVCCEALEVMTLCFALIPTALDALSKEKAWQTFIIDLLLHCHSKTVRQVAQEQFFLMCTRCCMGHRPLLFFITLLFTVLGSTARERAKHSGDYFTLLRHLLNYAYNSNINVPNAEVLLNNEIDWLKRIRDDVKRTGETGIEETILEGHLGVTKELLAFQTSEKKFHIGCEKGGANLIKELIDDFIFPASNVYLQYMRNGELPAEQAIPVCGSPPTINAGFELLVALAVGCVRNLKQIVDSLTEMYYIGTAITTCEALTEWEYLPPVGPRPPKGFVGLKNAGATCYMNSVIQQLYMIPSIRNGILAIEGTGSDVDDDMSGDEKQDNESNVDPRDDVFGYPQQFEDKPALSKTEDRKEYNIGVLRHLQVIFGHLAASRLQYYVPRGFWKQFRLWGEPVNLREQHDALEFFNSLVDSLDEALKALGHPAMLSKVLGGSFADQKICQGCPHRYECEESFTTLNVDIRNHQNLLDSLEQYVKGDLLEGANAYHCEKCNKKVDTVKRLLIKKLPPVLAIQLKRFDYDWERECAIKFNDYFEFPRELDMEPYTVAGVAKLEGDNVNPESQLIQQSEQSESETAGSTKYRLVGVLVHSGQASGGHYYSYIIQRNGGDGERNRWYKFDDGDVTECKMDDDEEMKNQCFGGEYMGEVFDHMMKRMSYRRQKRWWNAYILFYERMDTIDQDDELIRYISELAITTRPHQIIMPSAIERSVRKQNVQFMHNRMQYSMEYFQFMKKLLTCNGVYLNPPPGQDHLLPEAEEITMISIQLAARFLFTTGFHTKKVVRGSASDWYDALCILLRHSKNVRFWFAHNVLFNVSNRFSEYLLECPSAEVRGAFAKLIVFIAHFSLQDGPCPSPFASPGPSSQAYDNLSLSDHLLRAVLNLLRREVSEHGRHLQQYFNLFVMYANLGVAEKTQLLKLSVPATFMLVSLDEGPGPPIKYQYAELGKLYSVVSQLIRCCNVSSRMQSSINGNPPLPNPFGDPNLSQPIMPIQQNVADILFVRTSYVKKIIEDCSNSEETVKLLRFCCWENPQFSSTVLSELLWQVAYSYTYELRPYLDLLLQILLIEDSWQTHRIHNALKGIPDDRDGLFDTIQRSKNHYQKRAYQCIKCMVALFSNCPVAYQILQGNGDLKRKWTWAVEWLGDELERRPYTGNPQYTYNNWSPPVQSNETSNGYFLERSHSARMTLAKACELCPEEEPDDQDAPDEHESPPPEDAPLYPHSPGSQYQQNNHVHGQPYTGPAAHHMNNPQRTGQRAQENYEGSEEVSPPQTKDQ
pIC50: −log10 of the molar value.
Metric name: pIC50

Okay, here is my list. What is pIC50 for each of these?
1. O=C([C@H](CO)c1ccccc1)N1CC(=C2CN(S(=O)(=O)c3ccccn3)C2)C1
2. O=C([C@H](CO)c1ccccc1)N1CC(=C2CN(S(=O)(=O)c3ccc4c(c3)OCCO4)C2)C1
3. COc1ccc(S(=O)(=O)N2CC(=C3CN(C(=O)[C@H](CO)c4ccccc4)C3)C2)cc1

Output:
["6.52 to 7.00", "> 7.00", "> 7.00"]

* * *

Kindly state AC50 for each of the entries shown.
Target: recombinant human PKR enzyme (Homo sapiens (Human), UniProt P30613)
Assay: Pyruvate kinase (PKR) activity experiment
Assay type: biochemical
Settings: activation of recombinant human PKR enzyme

Please review the entries below; each comes with its answer.
N#Cc1ccc(S(=O)(=O)N2CC(=C3CN(C(=O)[C@H](CO)c4ccccc4)C3)C2)cc1
101 to 300 nM
COc1ccc(S(=O)(=O)N2CC(=C3CN(C(=O)[C@H](CO)c4ccccc4)C3)C2)nc1
< 100 nM
COc1ccc(S(=O)(=O)N2CC(=C3CN(C(=O)[C@H](CO)c4ccccc4)C3)C2)cc1
< 100 nM

O=C([C@H](CO)c1ccccc1)N1CC(=C2CN(S(=O)(=O)c3ccc(OC(F)F)c(F)c3)C2)C1 yielded AC50 of 101 to 300 nM

* * *

Target: recombinant human PKR enzyme (Homo sapiens (Human))
Assay: Pyruvate kinase (PKR) activity experiment
Type: biochemical
Conditions: activation of recombinant human PKR enzyme
Metric name: AC50

Please review the entries below; each comes with its answer.
O=C(C(CO)c1cccnc1)N1CC(=C2CN(S(=O)(=O)c3ccc4ncsc4c3)C2)C1 (stereo not shown)
101 to 300 nM
O=C([C@H](CO)c1ccc(F)cc1)N1CC(=C2CN(S(=O)(=O)c3ccc4ncsc4c3)C2)C1
< 100 nM
CC(C)Oc1ccc(S(=O)(=O)N2CC(=C3CN(C(=O)[C@H](CO)c4ccccc4)C3)C2)nc1
101 to 300 nM
[2H]C([2H])([2H])Oc1ccc(S(=O)(=O)N2CC(=C3CN(C(=O)[C@H](CO)c4ccccc4)C3)C2)nc1
< 100 nM
CN1CCN(c2cccc(C(O)C(=O)N3CC(=C4CN(S(=O)(=O)c5ccc6ncsc6c5)C4)C3)c2)CC1 (stereo not shown)
300 to 1000 nM

Okay, here is my list. What is AC50 for each of these?
1. O=C([C@@H](CO)c1ccc(F)cc1)N1CC(=C2CN(S(=O)(=O)c3ccc4c(c3)OCCO4)C2)C1
2. CNCC(C(=O)N1CC(=C2CN(S(=O)(=O)c3ccc4c(c3)OCCO4)C2)C1)c1cccc(OC)c1 (stereo not shown)

Output:
["300 to 1000 nM", "300 to 1000 nM"]
